These data points were gathered from paper PMC4946998.

biological target: MMP-9 (Homo sapiens)
Sequence (P14780 107-707 limits assumed): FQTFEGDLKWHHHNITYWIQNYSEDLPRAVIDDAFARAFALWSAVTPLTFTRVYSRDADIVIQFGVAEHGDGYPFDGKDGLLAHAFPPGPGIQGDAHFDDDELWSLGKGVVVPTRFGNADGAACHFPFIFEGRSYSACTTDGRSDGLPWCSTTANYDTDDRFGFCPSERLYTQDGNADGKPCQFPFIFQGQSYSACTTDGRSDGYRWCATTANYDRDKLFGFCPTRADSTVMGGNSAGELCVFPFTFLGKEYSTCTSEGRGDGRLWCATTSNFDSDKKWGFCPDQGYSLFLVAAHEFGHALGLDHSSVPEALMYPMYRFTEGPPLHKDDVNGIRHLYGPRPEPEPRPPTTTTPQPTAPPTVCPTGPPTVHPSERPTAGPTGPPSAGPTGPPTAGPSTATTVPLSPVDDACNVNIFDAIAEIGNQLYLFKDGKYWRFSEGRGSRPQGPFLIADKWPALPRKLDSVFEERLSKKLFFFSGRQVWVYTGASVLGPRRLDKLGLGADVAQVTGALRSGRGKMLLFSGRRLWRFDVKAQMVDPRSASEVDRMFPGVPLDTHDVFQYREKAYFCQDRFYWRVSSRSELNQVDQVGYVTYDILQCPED
Quantity Kind: IC50 (nM)
One number for each entry, in nM.

Ask | Which IC50 reading was recorded for the molecule `O=C(NO)c1ccccc1S(=O)(=O)c1ccc(-c2ccc(N3CCOCC3)cc2)cc1` ?
Reply | 2300

###

target: MMP-14 cd (Homo sapiens, UniProt P50281)
Quantity Kind: pIC50
One number for each entry, as −log10 of the molar value.

Ask | Which pIC50 reading was recorded for the compound O=C(NO)c1ccccc1S(=O)(=O)c1ccc(-c2ccc(N3CCOCC3)cc2)cc1 [CAM12] ?
Reply | 5.94

###

target: MMP-8 (Homo sapiens)
Sequence (P22894 101-467, species assumed): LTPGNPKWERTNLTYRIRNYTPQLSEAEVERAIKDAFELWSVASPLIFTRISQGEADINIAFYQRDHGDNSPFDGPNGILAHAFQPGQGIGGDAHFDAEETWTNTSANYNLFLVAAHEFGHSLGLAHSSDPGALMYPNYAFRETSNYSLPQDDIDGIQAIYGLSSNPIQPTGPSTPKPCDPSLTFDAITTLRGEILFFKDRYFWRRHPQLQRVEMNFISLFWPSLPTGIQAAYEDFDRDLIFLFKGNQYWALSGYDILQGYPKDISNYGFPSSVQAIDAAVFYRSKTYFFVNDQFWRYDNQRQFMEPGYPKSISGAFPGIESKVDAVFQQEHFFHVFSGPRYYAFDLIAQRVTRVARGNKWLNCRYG
Quantity Kind: pIC50
Answers are plain numbers, as −log10 of the molar value.

Ask | Which pIC50 reading was recorded for the compound `O=C(NO)c1ccccc1S(=O)(=O)c1ccc(-c2ccc(N3CCOCC3)cc2)cc1` ?
Reply | 7.24
